test_target: Vitamin D3 receptor A (Danio rerio, UniProt Q9PTN2)
Sequence (Q9PTN2 whole entry, the tested form may be a part): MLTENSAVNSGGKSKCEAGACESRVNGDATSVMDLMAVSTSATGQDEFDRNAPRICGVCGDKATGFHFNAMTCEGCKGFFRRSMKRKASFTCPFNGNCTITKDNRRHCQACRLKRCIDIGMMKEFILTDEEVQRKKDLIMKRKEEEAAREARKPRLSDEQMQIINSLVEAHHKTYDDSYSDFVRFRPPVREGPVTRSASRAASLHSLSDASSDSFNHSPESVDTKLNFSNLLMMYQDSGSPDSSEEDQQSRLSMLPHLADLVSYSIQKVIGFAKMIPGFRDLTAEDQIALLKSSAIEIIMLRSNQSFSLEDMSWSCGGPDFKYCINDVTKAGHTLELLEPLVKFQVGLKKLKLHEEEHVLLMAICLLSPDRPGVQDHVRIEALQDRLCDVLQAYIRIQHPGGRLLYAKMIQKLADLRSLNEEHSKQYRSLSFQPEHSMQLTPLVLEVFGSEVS
procedure_details: Agonist activity at zebrafish VDR LBD (156 to 453 residues) expressed in HEK293 EBNA cells harboring human CYP24-Tk-Luc plasmid assessed as induction of CYP24a1 gene after 18 hrs by dual-luciferase transcriptional reporter gene assay
pEC50: −log10 of the molar value.
readout_label: pEC50

{"chemical_smiles": "C=C1/C(=C\\C=C2/CCC[C@]3(C)[C@@H]([C@H](C)[C@@H]4CC[C@H](C(C)(C)O)O4)CC[C@@H]23)C[C@@H](O)C[C@H]1O", "test_target": "Vitamin D3 receptor A (Danio rerio, UniProt Q9PTN2)", "pEC50": "< 7.00"}
{"chemical_smiles": "C=C1/C(=C\\C=C2/CCC[C@]3(C)[C@@H]([C@H](C)[C@H]4CC[C@@H](C(C)(C)O)O4)CC[C@@H]23)C[C@@H](O)C[C@H]1O", "test_target": "Vitamin D3 receptor A (Danio rerio, UniProt Q9PTN2)", "pEC50": "< 7.00"}

Please turn your attention to the following entry.
# get_value(readout= pEC50, system= Vitamin D3 receptor A (Danio rerio, UniProt Q9PTN2)) for "C=C1/C(=C\C=C2/CCC[C@]3(C)[C@@H]([C@H](C)[C@@H]4CC[C@@H](C(C)(C)O)O4)CC[C@@H]23)C[C@@H](O)C[C@H]1O"
< 7.00

Recorded values, source ChEMBL document CHEMBL4020715.
